Tested on: NCI-H226
Test Details: NCI tumour cell line growth inhibition, 48 h
Activity calls are given as the source filed them. Rule as the data show it: active = GI50 up to about 1.1 µM and inactive = higher.
Outcomes: YES (active), NO (inactive)

COC(=O)[C@H]1C[C@H]1NC(=O)C(CC(=O)OCc1ccccc1)NC(=O)OCc1ccccc1 (some centres not stated) :: NO
COc1ccc(Nc2nc(N)c(C(=O)c3cccs3)s2)cc1 :: NO
CC(=O)O[C@]12CCCCCC1C1(O)C(O)CCCCC12 (some centres not stated) :: NO
Oc1nnc2c(-c3ccccc3)n[nH]c2n1 :: NO
O=[N+]([O-])C(=C(NCc1ccccc1)NCc1ccccc1)C(Cl)=C(Cl)Cl :: NO
CC1CC(C)(O)CC(C(O)CC2CC(=O)NC(=O)C2)C1=O (configuration not stated) [RESACTIN A] :: YES
CC1CC/C(=C\c2ccc(F)cc2)C2=C1C(c1ccc(F)cc1)NC(=S)N2 (configuration not stated) :: NO
CN(C)CCCN1c2ccccc2CCc2cc([N+](=O)[O-])ccc21 :: NO
CC(C)(C)Sc1nnc(SC(C)(C)C)c2c(SC(C)(C)C)nnc(O)c12 :: NO
CC(C)(C)N/N=C(/Cc1nc2c3c(ccc2nc1O)C(=O)c1ccccc1C3=O)C(=O)NC1=C(Cl)C(=O)c2ccccc2C1=O :: NO
CSC(=S)Nc1cc(C)ccn1 :: NO
OCc1cc2c([nH]c3ccccc32)c(C(O)CO)n1 (configuration not stated) :: NO
CCC1(O)C(=O)OCc2c1cc1n(c2=O)Cc2cc3ccc(CO)cc3nc2-1 (configuration not stated) :: NO
CC(=O)C1C(=O)C(=O)N(c2ccc([N+](=O)[O-])cc2)C1=O (configuration not stated) :: NO
CC(C)(C)c1ccc(O)c(C(O)c2ccncc2)c1 (configuration not stated) :: NO
O=C(O)COc1ccc(C(=O)/C(SS/C(C(=O)c2ccc(OCC(=O)O)c(Cl)c2Cl)=C2\C=C(c3ccc(Br)cc3)SS2)=C2/C=C(c3ccc(Br)cc3)SS2)c(Cl)c1Cl :: NO
CC(=O)/C=C/C1=C(C)CCCC1(C)CC(C)C (configuration not stated) :: NO
Sc1nc2c(c(-c3nc(S)nc4c3CCCCCCCCCC4)n1)CCCCCCCCCC2 :: NO
Cn1c2c(c3ccccc31)CCN(CCCCN1CCN(c3ccccc3)CC1)C2=O :: NO
NC1=Nc2cc(C(F)(F)F)ccc2Sc2nc3ccccc3n21 :: NO
N#C/C(=C\c1cc(F)cc(F)c1)c1ccccn1 :: NO
O=CNCCCN1CCN(CCCNC=O)CC1 :: NO
